Give IC50 for every item shown.
system: Jurkat; assay: In vitro test for antitumor activity against human Jurkat cell line using a formazan dye (MTT) conversion assay.; assay type: functional, cell-based
Answers are plain numbers, in µM.

[[record]]
compound_structure_string = "COc1cc2c(cc1OC)C(=O)/C(=C/c1cccc(Cl)c1)CC2"
measured_result = 9


Please examine the following record next.
Which IC50 reading was recorded for the compound COc1cc2c(cc1OC)C(=O)/C(=C/c1cc([N+](=O)[O-])cc([N+](=O)[O-])c1)CC2 ?
2

----------
tested on: B16; assay: Cytotoxicity was evaluated against B16 tumor cell lines; Significant activity; type: functional, cell-based; details: Mus musculus
QUANTITY: Cytotoxicity

[[record]]
compound_structure_string = "COc1cc2c(cc1OC)C(=O)/C(=C/c1ccc(O)c(C)c1)C2"
measured_result = "Significant activity"

[[record]]
compound_structure_string = "COc1cc2c(cc1OC)C(=O)/C(=C/c1cccc(Cl)c1)CC2"
measured_result = "Significant activity"

[[record]]
compound_structure_string = "COc1cc2c(cc1OC)C(=O)/C(=C/c1cc(C)c(O)c(C)c1)C2"
measured_result = "Significant activity"

[[record]]
compound_structure_string = "COc1ccc(OC)c(/C=C2\\CCc3cc(OC)c(OC)cc3C2=O)c1"
measured_result = "Significant activity"

[[record]]
compound_structure_string = "COc1cc2c(c(N)c1OC)C(=O)/C(=C/c1cc(C)c(N)c(C)c1)C2"
measured_result = "Significant activity"

[[record]]
compound_structure_string = "COc1cc2c(cc1OC)C(=O)/C(=C/c1cccc(C)c1)C2"
measured_result = "Significant activity"


Which Cytotoxicity reading was recorded for the compound COc1cc2c(cc1OC)C(=O)/C(=C/c1cc(C)cc(C)c1)CC2 ?
Significant activity
